From: patent EP0638553A1

Test system: Humanthrombozyten
Experiment: Inhibition of the binding of ³H-BIBU 52 to human platelets (fibrinogen binding test)
Conditions: displacement of ³H-BIBU 52 (5 nM) from human platelets in plasma, 20 min at room temperature; read-out: Fibrinogen-Bindungstest IC₅₀
Excerpt: 1. Hemmung der Bindung von ³H-BIBU 52 an Humanthrombozyten: Eine Suspension von Humanthrombozyten in Plasma wird mit ³H-BIBU 52 [= (3S,5S)-5-[(4'-Amidino-4-biphenylyl)oxymethyl]-3-[(carboxyl)methyl]-2-pyrrolidinon[3-³H-4-biphenylyl]], das den literaturbekannten Liganden ¹²⁵J-Fibrinogen ersetzt, (siehe deutsche Patentanmeldung P 42 14 245.8 der gleichen Anmelderin vom 30. 04. 1992, internes Zeichen: Case 5/1093-FL) und verschiedenen Konzentrationen der zu testenden Substanz inkubiert. […]
pIC50: −log10 of the molar value.
Readout Kind: pIC50

Some compounds with known pIC50 results, for comparison:
# Compound, pIC50
records = [
    ("O=C(NC1CCNCC1)c1ccc(C(=O)N[C@H]2CC[C@H](C(=O)O)CC2)cc1", 5.68),
    ("NCC1CCc2cc(C(=O)N[C@H]3CC[C@H](CCC(=O)O)CC3)ccc2C1 (some centres unmarked)", 5.82),
]

(A) O=C(N[C@H]1CC[C@H](C(=O)O)CC1)c1ccc(NC(=O)C2CCNCC2)cc1
(B) O=C(N[C@H]1CC[C@H](C(=O)O)CC1)c1cccc(OCC2CCNCC2)c1
(C) O=C(O)CC1CCN(C(=O)c2ccc(NCC3CCNCC3)cc2)CC1
q: List the 3 entries from lowest pIC50 to highest pIC50 value. Reply with the labels, ordered as the question asks.
a: C, A, B
